# TARGET OR SYSTEM: natural β-amyloid peptide β-AP1-40 (human)
# Sequence (peptide, as listed by the source): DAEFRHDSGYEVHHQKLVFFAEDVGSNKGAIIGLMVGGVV
# METHOD DESCRIPTION: cell-based or functional assay
Numbered stars: 1 amine (or outer) side, 2 acyl side, 3 side chain; on linkers, the order of the positions; unused ones are H or OH. Square brackets hold non-standard residues; d marks the D form. * marks the point of attachment. Cholyl = C[C@H](CCC(=O)*)[C@H]1CC[C@H]2[C@@H]3[C@H](O)C[C@@H]4C[C@H](O)CC[C@]4(C)[C@H]3C[C@H](O)[C@]12C; Adp = aminoethyldibenzofuranylpropanoic acid, O=C(CCc1cccc2c1oc1c(CCN[*:1])cccc12)[*:2]
Each item that follows carries a reported ΔLag; nucleation assay; 100 mole %.

>  <BINDER>
Cholyl-HDSGY-NH2 (SMILES C[C@H](CCC(=O)N[C@@H](Cc1c[nH]cn1)C(=O)N[C@@H](CC(=O)O)C(=O)N[C@@H](CO)C(=O)NCC(=O)N[C@@H](Cc1ccc(O)cc1)C(N)=O)[C@H]1CC[C@H]2[C@@H]3[C@H](O)C[C@@H]4C[C@H](O)CC[C@]4(C)[C@H]3C[C@H](O)[C@]12C) [cholyl-Aβ6-10-amide]

>  <ΔLag; nucleation assay; 100 mole %>
1.1 ratio

$$$$
>  <BINDER>
Cholyl-LVFFA-NH2 [CA-LVFFA-nh2]

>  <ΔLag; nucleation assay; 100 mole %>
1 ratio

$$$$
>  <BINDER>
H-DDIIL[Adp]VFF-OH (SMILES CC[C@H](C)[C@H](NC(=O)[C@H](CC(=O)O)NC(=O)[C@@H](N)CC(=O)O)C(=O)N[C@H](C(=O)N[C@@H](CC(C)C)C(=O)NCCc1cccc2c1oc1c(CCC(=O)N[C@H](C(=O)N[C@@H](Cc3ccccc3)C(=O)N[C@@H](Cc3ccccc3)C(=O)O)C(C)C)cccc12)[C@@H](C)CC) [h-DDIIL-(Adp)-VFF-oh]

>  <ΔLag; nucleation assay; 100 mole %>
0.4 ratio

$$$$
